Test system: HL-1
assay_notes: relative cell viability (CellTiter-Glo) vs DMSO control (% of DMSO control); higher = more viable cells
experimental_context: oxygen condition: normoxia 72 h; 5000 nM
Counter-ions that a name gives are not always drawn.
observation_type: relative cell viability
# output: bare number, no unit

Lab note: measured relative cell viability of Cc1cnc(C(=O)O)c[n+]1[O-] was 108

Lab note: measured relative cell viability of N=C(N)NC(=O)c1nc(Cl)c(N)nc1N [Amiloride hydrochloride dihydrate] was 111

Lab note: measured relative cell viability of COc1cc(Nc2c(C#N)cnc3cc(OCCCN4CCN(C)CC4)c(OC)cc23)c(Cl)cc1Cl was 116

Lab note: measured relative cell viability of CN(CCOc1ccc(CC2SC(=O)NC2=O)cc1)c1ccccn1 (centres undefined) [Rosiglitazone HCl] was 107

Lab note: measured relative cell viability of CC(C)CC(N)=O [Isovaleramide] was 104

Lab note: measured relative cell viability of C=C1CC[C@H](O)C/C1=C/C=C1\CCC[C@]2(C)[C@@H]([C@H](C)CCCC(C)(C)O)CC[C@@H]12 was 117

Lab note: measured relative cell viability of Cc1ccc(NC(=O)c2ccc(CN3CCN(C)CC3)cc2)cc1Nc1nccc(-c2cccnc2)n1 [Imatinib] was 111

Lab note: measured relative cell viability of CC(C)C[C@H](NC(=O)[C@@H](O)[C@H](N)Cc1ccccc1)C(=O)O was 108

Lab note: measured relative cell viability of CCOC(=O)OC(C)OC1=C(C(=O)Nc2ccccn2)N(C)S(=O)(=O)c2ccccc21 (centres undefined) was 120

---

So I've got a bunch of compounds here, and I need their relative cell viability values.
Tested on: HL-1
assay_notes: relative cell viability (CellTiter-Glo) vs DMSO control (% of DMSO control); higher = more viable cells
experimental_context: oxygen condition: hypoxia 48 h (1% O2) + reoxygenation 24 h; 200 nM
Where a name gives a salt, the structure may show the parent alone.
# output: bare number, no unit

Lab note: measured relative cell viability of CS(=O)(=O)OCCCCOS(C)(=O)=O was 102

Lab note: measured relative cell viability of CN1C(CCl)Nc2cc(Cl)c(S(N)(=O)=O)cc2S1(=O)=O (stereo not given) [Methyclothiazide] was 98.5

Lab note: measured relative cell viability of OCCN1C[C@H](O)[C@@H](O)[C@H](O)[C@H]1CO was 104

Lab note: measured relative cell viability of COc1cc2nc(N3CCN(C(=O)c4ccco4)CC3)nc(N)c2cc1OC [Prazosin HCl] was 101

Lab note: measured relative cell viability of NCCCC[C@H](N[C@@H](CCc1ccccc1)C(=O)O)C(=O)N1CCC[C@H]1C(=O)O was 94.9

---

System: HL-1
assay_notes: relative cell viability (CellTiter-Glo) vs DMSO control (% of DMSO control); higher = more viable cells
experimental_context: oxygen condition: normoxia 72 h; 200 nM
Structures can show the parent of a compound that is named as a salt.
observation_type: relative cell viability

Reported relative cell viability (HL-1) for entry CC[C@@]1(O)C(=O)OCc2c1cc1n(c2=O)Cc2cc3c(CN(C)C)c(O)ccc3nc2-1 [Topotecan HCl] is 30.9

Reported relative cell viability (HL-1) for entry CNC(=C[N+](=O)[O-])NCCSCc1ccc(CN(C)C)o1 is 105

Reported relative cell viability (HL-1) for entry O=C(CCCN1CCC(O)(c2ccc(Cl)cc2)CC1)c1ccc(F)cc1 is 98

Reported relative cell viability (HL-1) for entry C#CCC(Cc1cnc2nc(N)nc(N)c2n1)c1ccc(C(=O)N[C@@H](CCC(=O)O)C(=O)O)cc1 (some centres not stated) [Pralatrexate] is 42.7

Reported relative cell viability (HL-1) for entry C#C[C@]1(O)CC[C@H]2[C@@H]3CCC4=CC(=O)CC[C@@H]4[C@H]3CC[C@@]21C is 108

Reported relative cell viability (HL-1) for entry CCCc1ncc(C[n+]2ccccc2C)c(N)n1 [Amprolium HCl] is 104

Reported relative cell viability (HL-1) for entry Clc1ccccc1CN1CCc2sccc2C1 [Ticlopidine HCl] is 97.1

Reported relative cell viability (HL-1) for entry C=C(c1ccc(C(=O)O)cc1)c1cc2c(cc1C)C(C)(C)CCC2(C)C is 107

Reported relative cell viability (HL-1) for entry CN(Cc1ccc(C(C)(C)C)cc1)Cc1cccc2ccccc12 [Butenafine HCl] is 100

Reported relative cell viability (HL-1) for entry CN(CCOc1ccc(CC2SC(=O)NC2=O)cc1)c1ccccn1 (configuration not stated) [Rosiglitazone HCl] is 93.8

Reported relative cell viability (HL-1) for entry Cc1ccc(C(=O)c2cc(O)c(O)c([N+](=O)[O-])c2)cc1 is 102

Reported relative cell viability (HL-1) for entry CCN(CC)CCOc1ccc(C(=C(Cl)c2ccccc2)c2ccccc2)cc1 [Clomifene citrate] is 106

Reported relative cell viability (HL-1) for entry CCN1CC(CCN2CCOCC2)C(c2ccccc2)(c2ccccc2)C1=O (configuration not stated) [Doxapram HCl] is 103

Reported relative cell viability (HL-1) for entry CCOC(=O)C1=C(C)NC(C)=C(C(=O)OC)C1c1cccc(Cl)c1Cl (configuration not stated) is 101

Reported relative cell viability (HL-1) for entry C=C1c2cccc(O)c2C(=O)C2=C(O)[C@]3(O)C(=O)C(C(N)=O)=C(O)[C@@H](N(C)C)[C@@H]3[C@@H](O)[C@H]12 [Methacycline hydrochloride] is 105

Reported relative cell viability (HL-1) for entry Nc1ccc(/N=N/c2ccccc2)c(N)n1 [Phenazopyridine HCl] is 103

Reported relative cell viability (HL-1) for entry Cc1ccc(Nc2nccc(N(C)c3ccc4c(C)n(C)nc4c3)n2)cc1S(N)(=O)=O [Pazopanib HCl] is 113
